Below is a list of entries, each paired with its recorded TGI value.
# Test system: SNB-75 CNS
# Test Method Notes: NCI tumour cell line growth inhibition, 48 h

Compound | TGI
C[N+](C)([O-])Cc1cc(-c2ccccc2)ccc1O | > 100 µM
N#CCCN(CCC#N)c1ccc(C(N=Nc2ccc(Cl)cc2)=Nc2ccc(F)cc2)cc1 | > 100 µM
CCC(=O)NCCc1c2c3c(ccnc3c3ncsc13)-c1ccccc1N2 | > 88.3 µM
Cc1c(-c2ccccc2)c(C#N)c2nnn(-c3cccc(Cl)c3)c(=O)n12 | > 100 µM
CC(=O)Nc1ccc2cc3[nH]c4cc(NC(C)=O)ccc4c3nc2c1 | > 100 µM
COCOCC[C@@H]1CC=CC(NC(=O)OCc2ccccc2)C1/C=C/C(=O)CCC1OCCO1 (stereo not given in full) | > 90 µM
C1CCN2CC3CCCN4CCCC(C2C1)C34 (stereo not given) | > 100 µM
OC1CCC[C@@H]1Sc1ccccc1 (stereo not given in full) | > 100 µM
O=C(O)CCSC(=S)Nc1cccc(F)c1 | > 100 µM
CCCOC1OC(CS(=O)(=O)O)C(O)C(O)C1O (stereo not given) | > 100 µM

Values from PubChem BioAssay (NCI)
